Collected literature values of IC50 measured for Platelet-derived growth factor receptor beta (Mus musculus).
Numeric answer only, unit nM assumed.

Quick one: IC50 of CCNC(=O)Nc1nc2cc(NCCCN3CCN(C)CC3)ncc2cc1-c1cc(OC)cc(OC)c1 ?
30000

Next up: Nc1c(-c2nc3ccccc3[nH]2)c(=O)[nH]c2ccccc12
102

Next up: OCC(O)COc1ccc2c(c1)ncn2-c1ccccc1 (stereo unspecified)
310

Next up: CN1CCN(CCCOc2ccc(Nc3cc4c(cn3)cc(-c3c(Cl)cccc3Cl)c(=O)n4C)cc2)CC1
900

Next up: CCN(CC)CCCCNc1cc2nc(NC(=O)NC(C)(C)C)c(-c3cc(OC)cc(OC)c3)cc2cn1
2600

Next up: c1ccc(COc2cccc3[nH]nc(-c4nc5cc(N6CCC(N7CCCCC7)CC6)ccc5[nH]4)c23)cc1
1800

Next up: CN(C)CCCOc1ccc2c(c1)ncn2-c1ccccc1
150

Next up: COc1ccc2c(c1)ncn2-c1ccc(N)cc1
280

Next up: CN1CCN(CCOc2ccc(Nc3cc4c(cn3)cc(-c3c(Cl)cccc3Cl)c(=O)n4C)cc2)CC1
260
